These entries and their values trace back to patent US20260365671A1.

target: NLRP3 inflammasome (Homo sapiens, UniProt Q96P20); construct: IL-1beta HTRF; assay: IL-1β TR-FRET assay (THP-1 cells differentiated to macrophages with IFN-γ, LPS primed, ATP activated; HTRF); type: cell-based; conditions: THP-1 macrophages, 50 ng/mL LPS priming, compound 30 min, 20 mM ATP 2 hours
Sequence (Q96P20 whole entry): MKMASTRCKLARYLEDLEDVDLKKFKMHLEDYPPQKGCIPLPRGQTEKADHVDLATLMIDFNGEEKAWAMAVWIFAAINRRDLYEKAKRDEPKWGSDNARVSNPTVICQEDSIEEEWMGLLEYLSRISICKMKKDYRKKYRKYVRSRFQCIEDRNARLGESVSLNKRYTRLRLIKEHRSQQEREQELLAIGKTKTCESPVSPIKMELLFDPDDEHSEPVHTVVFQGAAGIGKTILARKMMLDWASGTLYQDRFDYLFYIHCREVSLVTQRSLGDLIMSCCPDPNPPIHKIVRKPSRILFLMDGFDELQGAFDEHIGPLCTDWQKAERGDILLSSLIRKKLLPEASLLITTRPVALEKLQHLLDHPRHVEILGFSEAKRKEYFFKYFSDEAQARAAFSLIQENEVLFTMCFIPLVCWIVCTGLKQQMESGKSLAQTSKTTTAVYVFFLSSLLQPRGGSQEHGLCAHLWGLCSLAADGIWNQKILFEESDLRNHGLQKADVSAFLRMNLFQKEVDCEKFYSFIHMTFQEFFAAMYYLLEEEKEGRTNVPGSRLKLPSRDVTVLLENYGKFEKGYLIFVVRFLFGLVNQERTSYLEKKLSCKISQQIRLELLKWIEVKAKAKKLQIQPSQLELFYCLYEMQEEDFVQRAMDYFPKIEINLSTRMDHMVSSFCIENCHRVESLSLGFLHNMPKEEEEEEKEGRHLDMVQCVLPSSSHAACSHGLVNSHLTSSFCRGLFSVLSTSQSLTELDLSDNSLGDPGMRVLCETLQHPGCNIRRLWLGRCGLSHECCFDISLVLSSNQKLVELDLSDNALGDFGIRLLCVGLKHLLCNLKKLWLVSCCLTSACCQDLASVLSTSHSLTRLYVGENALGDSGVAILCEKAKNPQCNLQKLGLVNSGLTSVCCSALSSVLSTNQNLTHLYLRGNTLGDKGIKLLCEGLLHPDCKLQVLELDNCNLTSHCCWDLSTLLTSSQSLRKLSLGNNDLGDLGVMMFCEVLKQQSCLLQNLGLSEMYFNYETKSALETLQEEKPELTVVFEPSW
pIC50: −log10 of the molar value.
measuredAttribute: pIC50

| compound | measuredAttribute | reading |
| --- | --- | --- |
| Cc1cc(C)c(-n2cc3sc(NC4CCC(=O)N(C)C4)nc3n2)c(O)c1 (stereo not shown) [Example 115] | pIC50 | 6.31 |

A = Cc1cc(C)c(-n2cc3sc(NC4CCN(S(C)(=O)=O)C4)nc3n2)c(O)c1 (stereo not shown) [Example 100]
B = Cc1cc(C)c(-n2cc3sc(N[C@H]4CC[C@H](O)CC4)nc3n2)c(O)c1 [Example 25]
C = CCc1cc(C)cc(O)c1-n1cc2sc(NC[C@@H](C)O)nc2n1 [Example 87]
Ask: Hey, quick one: sort these by pIC50, low to high? Your reply should list the labels following the order given in the request.
Reply: A, B, C

###

molecular target: NLRP3 inflammasome (Homo sapiens); construct: IL-1beta HTRF; test: IL-1β TR-FRET assay (THP-1 cells differentiated to macrophages with IFN-γ, LPS primed, ATP activated; HTRF); conditions: THP-1 macrophages, 50 ng/mL LPS priming, compound 30 min, 20 mM ATP 2 hours
measuredAttribute: IC50 (nM)

| molecule | unit | IC50 |
| --- | --- | --- |
| Cc1cc(C)c(-n2cc3sc(NCCN(C)C)nc3n2)c(O)c1 | nM | 680 |
| Cc1cc(C)c(-n2cc3sc(NC4CCN(S(=O)(=O)C5CC5)C4)nc3n2)c(O)c1 (centres unmarked) | nM | 420 |
| CO[C@@H]1C[C@@H](Nc2nc3nn(-c4c(C)cc(C)cc4O)cc3s2)CN(C)C1 | nM | 1600 |
| Cc1cc(C)c(-n2cc3sc(NC4CCN(S(C)(=O)=O)CC4)nc3n2)c(O)c1 | nM | 1200 |

A = Cc1cc(C)c(-n2cc3sc(N[C@@H]4CCN(C)C(=O)C4)nc3n2)c(O)c1
B = COC(=O)N1CCC(Nc2nc3nn(-c4c(C)cc(C)cc4O)cc3s2)C1 (centres unmarked)
C = CN1C[C@H](F)C[C@@H](Nc2nc3nn(-c4c(O)cccc4Cl)cc3s2)C1
D = Cc1cc(Cl)cc(O)c1-n1cc2sc(N[C@@H]3C[C@@H](F)CN(C)C3)nc2n1
Ask: Highest IC50 first, then in falling order down to the smallest. Your reply should list the labels following the order given in the request.
Reply: A, B, C, D
(A: 1100 nM, B: 660 nM, C: 290 nM, D: 14 nM)

1 = Cc1cc(C)c(-n2cc3sc(N[C@@H]4CC[C@@H](O)C4)nc3n2)c(O)c1 [Example 45]
2 = Cc1cc(C)c(-n2cc3sc(N[C@H]4COC[C@@H]4F)nc3n2)c(O)c1 (racemic) [Example 121]
3 = Cc1cc(C)c(-n2cc3sc(NC[C@H]4CCCO4)nc3n2)c(O)c1
4 = Cc1cc(C)c(-n2cc3sc(NC45CCC(O)(CC4)C5)nc3n2)c(O)c1
5 = Cc1cc(C)c(-n2cc3sc(N[C@@H]4C[C@@H](F)CN(C)C4)nc3n2)c(O)c1
Ask: Highest IC50 first, then in falling order down to the smallest. Your reply should list the labels following the order given in the request.
Reply: 3, 2, 1, 4, 5

1 = Cc1cc(C)c(-n2cc3sc(NC4COCC4O)nc3n2)c(O)c1 (centres unmarked)
2 = CC(=O)NCCNc1nc2nn(-c3c(C)cc(C)cc3O)cc2s1
Ask: Compare the recorded IC50 of 1 and 2 ; state which is larger. Respond with the label that goes with your answer.
Reply: 2

1 = Cc1cc(C)c(-n2cc3sc(NC4C5CC6CC4CC(O)(C6)C5)nc3n2)c(O)c1 (centres unmarked)
2 = Cc1cc(C)c(-n2cc3sc(N[C@@H]4CCCN(C5CCOC5)C4)nc3n2)c(O)c1 (single isomer, unassigned) [Example 72]
Ask: Pick one, 1 or 2 : lowest reported IC50. Respond with the label that goes with your answer.
Reply: 2

I = COCCN(c1nc2nn(-c3c(C)cc(C)cc3O)cc2s1)[C@@H]1CCCNC1
II = COc1cc(C)c(-n2cc3sc(N[C@@H]4C[C@@H](F)CN(C)C4)nc3n2)c(O)c1
III = Cc1cc(C)c(-n2cc3sc(N[C@H]4C[C@H](F)CN(C)C4)nc3n2)c(O)c1
IV = CCN1C[C@H](F)C[C@@H](Nc2nc3nn(-c4c(O)cc(F)cc4C(F)F)cc3s2)C1
V = COC(=O)N1CCCC(Nc2nc3nn(-c4c(C)cc(C)cc4O)cc3s2)C1 (centres unmarked)
Ask: Highest IC50 first, then in falling order down to the smallest. Your reply should list the labels following the order given in the request.
Reply: III, V, I, II, IV

a = Cc1cc(C)c(-n2cc3sc(NC45CC(OC(F)F)(C4)C5)nc3n2)c(O)c1
b = CCN1C[C@H](F)C[C@@H](Nc2nc3nn(-c4c(C)cc(C)cc4O)cc3s2)C1
c = Cc1cc(C)c(-n2cc3sc(N[C@H]4CC[C@@H](O)CC4)nc3n2)c(O)c1
d = Cc1cc(OC(F)F)cc(O)c1-n1cc2sc(N[C@@H]3C[C@@H](F)CN(C)C3)nc2n1
Ask: Highest IC50 first, then in falling order down to the smallest. Your reply should list the labels following the order given in the request.
Reply: a, c, d, b
(a: 3500 nM, c: 830 nM, d: 75 nM, b: 13 nM)

###

// pIC50 lookup, one value per entry
Tested on: NF-κB pathway
Assay: TNF-α assay (THP-1 cells differentiated to macrophages with IFN-γ, NF-κB pathway activated with LPS; ELISA)
Type: cell-based, Human
Details: Homo sapiens, THP-1, THP-1 macrophages, compound 30 min, 50 ng/mL LPS 3 hours
Experimental: The biological activity of Compound (I) with respect to NLRP3 was determined using the following in vitro methods. TNF-α Assay (Reported as IC50) Monocytic THP-1 cells (ATCC: TIB-202) were maintained in accordance with the provider's instructions in RPMI media (Life Technologies, Cat #A10491-01); RPMI was supplemented with 10% heat inactivated fetal bovine serum (Hyclone Cat #SH30396.03). The cells were differentiated into macrophages by the addition of 25 ng/mL IFN-γ for 24 hours at 37 °C/5% CO2. […]
pIC50: −log10 of the molar value.

Please review the following examples before continuing.
| compound | targetDesc | pIC50 |
| --- | --- | --- |
| Cc1cc(C)c(-n2cc3sc(N[C@@H]4CCN(C)C(=O)C4)nc3n2)c(O)c1 | NF-κB pathway | < 4.52 |
| Cc1cc(C)c(-n2cc3sc(N[C@@H]4CCN(CC(F)F)C4)nc3n2)c(O)c1 | NF-κB pathway | < 4.52 |
| Cc1cc(C)c(-n2cc3sc(N[C@@H]4CC[C@H](O)C4)nc3n2)c(O)c1 | NF-κB pathway | < 5.00 |

Ask: Fill in: pIC50 of Cc1cc(C)c(-n2cc3sc(N[C@@H]4C[C@H](C(F)F)CN(C)C4)nc3n2)c(O)c1 is ___
Reply: < 5.00

###

system: NF-κB pathway; test: TNF-α assay (THP-1 cells differentiated to macrophages with IFN-γ, NF-κB pathway activated with LPS; ELISA); type: cell-based, Human; settings: Homo sapiens, THP-1, THP-1 macrophages, compound 30 min, 50 ng/mL LPS 3 hours
measuredAttribute: IC50

| compound | reading |
| --- | --- |
| Cc1cc(C)c(-n2cc3sc(N[C@@H]4CN(C)C[C@H]4F)nc3n2)c(O)c1 | > 30 µM |
| Cc1cc(C)c(-n2cc3sc(NC4CCCN(C)C4=O)nc3n2)c(O)c1 (centres unmarked) | > 30 µM |
| COCCN(C)c1nc2nn(-c3c(C)cc(C)cc3O)cc2s1 | > 10 µM |

Ask: Fill in: IC50 of Cc1cc(C)c(-n2cc3sc(N[C@@H]4CCOC4)nc3n2)c(O)c1 is ___
Reply: > 30 µM

###

biological target: NLRP3 inflammasome (Homo sapiens); construct: IL-1beta HTRF; assay: IL-1β TR-FRET assay (THP-1 cells differentiated to macrophages with IFN-γ, LPS primed, ATP activated; HTRF); details: THP-1 macrophages, 50 ng/mL LPS priming, compound 30 min, 20 mM ATP 2 hours
pIC50: −log10 of the molar value.
measuredAttribute: pIC50

Please review the following examples before continuing.
| compound | pIC50 |
| --- | --- |
| Cc1cc(C)c(-n2cc3sc(N[C@@H]4CC[C@@H](O)C4)nc3n2)c(O)c1 [Example 44] | 6.62 |
| CCC(=O)N1C[C@H](Nc2nc3nn(-c4c(C)cc(C)cc4O)cc3s2)[C@@H](F)C1 (racemic) | 6.51 |
| Cc1cc(C)c(-n2cc3sc(N[C@H]4COC[C@H]4F)nc3n2)c(O)c1 (racemic) [Example 122] | 6.24 |
| Cc1cc(C)c(-n2cc3sc(N[C@@H]4CCCN(CC(F)F)C4)nc3n2)c(O)c1 | 7.17 |

1 = CCC(=O)N1CCCC(Nc2nc3nn(-c4c(C)cc(C)cc4O)cc3s2)C1 (centres unmarked)
2 = Cc1cc(C)c(-n2cc3sc(N[C@H]4CN(C)C[C@H]4F)nc3n2)c(O)c1 (racemic)
3 = Cc1cc(C)c(-n2cc3sc(NC4CCN(C(=O)OCC(Cl)(Cl)Cl)C4)nc3n2)c(O)c1 (centres unmarked)
4 = Cc1cc(O)c(-n2cc3sc(NC[C@@H](C)O)nc3n2)c(C2CC2)c1
Ask: Highest pIC50 first, then in falling order down to the smallest. Your reply should list the labels following the order given in the request.
Reply: 4, 3, 1, 2
(4: 7.11, 3: 6.60, 1: 6.23, 2: 5.96)
